- System: LNCaP, hormone-dependent prostate cancer
- Method notes: In vitro cytotoxicity, human tumor panel: LNCaP
- Type: cell-based
- Assay context: Homo sapiens, LNCaP, read-out: ED50 LNCaP
Listing of recorded IC50 by entry.

[[record]]
compound_smiles = "COc1cc(C=CC(=O)O[C@H]2C[C@@H]3C[C@H](OC(=O)Cc4ccccc4)C[C@H]2N3C)cc(OC)c1OC"
measured = "> 20 µg/mL"

[[record]]
compound_smiles = "COc1cc(C=CC(=O)O[C@@H]2C[C@@H]3[C@@H](OC(=O)C=Cc4cc(OC)c(OC)c(OC)c4)[C@@H](O)[C@H](C2)N3C)cc(OC)c1OC"
measured = "14.1 µg/mL"

[[record]]
compound_smiles = "COc1cc(C=CC(=O)O[C@H]2C[C@@H]3C[C@H](OC(=O)Cc4cccc(O)c4)C[C@H]2N3C)cc(OC)c1OC"
measured = "> 20 µg/mL"


Moving on to another molecule below.
// returns reported IC50 for input COc1cc(C=CC(=O)O[C@H]2[C@@H](O)[C@@H]3C[C@H](OC(=O)c4cc(OC)c(OC)c(OC)c4)C[C@H]2N3C)cc(OC)c1OC > 20 µg/mL

* * *

- Test system: Col2, colon cancer
- Method notes: In vitro cytotoxicity, human tumor panel: Col2
- Assay type: cell-based
- Assay context: Homo sapiens, read-out: ED50 Col2
Listing of recorded IC50 by entry.

Worked examples follow.
[[record]]
compound = "CN1[C@@H]2C[C@@H](OC(=O)Cc3ccccc3)C[C@H]1[C@H](O)[C@@H]2O [Compound 1, Tropane-3α,6β,7β-triol 3-phenylacetate]"
assay_metric = "IC50"
measured = "> 20 µg/mL"

[[record]]
compound = "COc1cc(C=CC(=O)O[C@H]2[C@@H](O)[C@@H]3C[C@H](OC(=O)c4cc(OC)c(OC)c(OC)c4)C[C@H]2[N+]3(C)[O-])cc(OC)c1OC (stereo partly drawn)"
assay_metric = "IC50"
measured = "> 20 µg/mL"


Moving on to another compound below.
// returns reported IC50 for input COc1cc(C=CC(=O)O[C@H]2[C@@H](O)[C@@H]3C[C@H](OC(=O)c4cc(OC)c(OC)c(OC)c4)C[C@H]2N3C)cc(OC)c1OC > 20 µg/mL

Cited source for all entries: patent US6989396B2
